biological target: hSERT (Homo sapiens, UniProt P31645); conditions: read-out: Reuptake inhibition activity IC50, hSERT, JAR cells
Sequence (P31645 whole entry): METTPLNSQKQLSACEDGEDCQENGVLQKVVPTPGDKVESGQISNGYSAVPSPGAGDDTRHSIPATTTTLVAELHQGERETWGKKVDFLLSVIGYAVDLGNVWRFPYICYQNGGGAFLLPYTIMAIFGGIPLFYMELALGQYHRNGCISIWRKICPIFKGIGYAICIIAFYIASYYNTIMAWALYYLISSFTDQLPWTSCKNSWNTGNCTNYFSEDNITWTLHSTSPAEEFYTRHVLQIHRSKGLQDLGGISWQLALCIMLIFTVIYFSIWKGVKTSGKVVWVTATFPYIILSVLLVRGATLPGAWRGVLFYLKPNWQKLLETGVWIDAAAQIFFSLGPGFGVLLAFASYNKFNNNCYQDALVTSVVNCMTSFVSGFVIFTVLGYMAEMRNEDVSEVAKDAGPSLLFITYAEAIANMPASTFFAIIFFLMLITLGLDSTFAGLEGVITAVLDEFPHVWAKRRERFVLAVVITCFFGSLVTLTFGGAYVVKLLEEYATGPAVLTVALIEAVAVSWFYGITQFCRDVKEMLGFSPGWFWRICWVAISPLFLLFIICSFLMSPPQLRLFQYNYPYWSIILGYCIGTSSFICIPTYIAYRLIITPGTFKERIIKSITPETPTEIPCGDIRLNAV
Each record here notes measured pIC50.
Convention used: pIC50 is expressed as -log10 of the molar concentration.

compound	pIC50
COC(=O)[C@H]1C(c2ccc(I)cc2)C[C@@H]2CC[C@H]1N2C (some centres unmarked)	8.88

Now for the compound whose pIC50 we want.
**Query** Record CN1[C@H]2CC[C@@H]1[C@@H](C(=O)N1CCCC1)[C@@H](c1ccc(I)cc1)C2 : what is its pIC50 with hSERT (Homo sapiens, UniProt P31645)?
**Result** 6.23
